Measured EC50 GLP-1 (nM); cAMP response of individual entries
target: human glucagon-like peptide 1 receptor (GLP-1 R) (human, UniProt P43220 24-463); experiment: cell-based or functional assay
*1 amine or outer side, *2 acyl side, *3 side chain or, on linkers, in order; H or OH if unused. Side-chain parts run from the residue outwards. [ ]: non-standard residue; d: D form. The star is where a group is joined. C20 diacid = O=C(O)CCCCCCCCCCCCCCCCCCC(=O)*; γGlu = O=C(O)[C@H](CCC(=O)[*:2])N[*:1]; AEEA = NCCOCCOCC(=O)O; Aib = CC(C)(N)C(=O)O
# value in nM; strip the unit string

Solved cases below.
{"binder": "H-H[Aib]EGSFTSELATILDK([AEEA-AEEA-Lys-Glu-Lys-γGlu-C20 diacid])QAARDFIAWLIEHKITD-OH [Compound 60]", "value": 0.097}
{"binder": "H-H[Aib]EGSFTSELATILEGK([AEEA-AEEA-γGlu-C20 diacid])AARDFIAWLIEHKITD-OH [Compound 44]", "value": 0.063}

Attention now shifts to the item below.
Prompt: For H-H[Aib]EGSFTSELATILEGK([AEEA-Lys-Glu-Lys-γGlu-C20 diacid])AARDFIAWLIEHKITD-OH [Compound 61] , what is its reported EC50 GLP-1 (nM); cAMP response?
Response: 0.13
